Numbers sourced from the supplement of paper PMC8882468.

test system: HCI-008 (organoid from a HER2-enriched breast cancer xenograft); test: CTG-3D luminescence at 96 h relative to day-0 seeding control (ratio to day 0); higher = more growth / less cytotoxicity; PDxO 3D drug screen, 96 h, CTG-3D normalised to day-0 seeding control.; settings: 10 µM; days in culture: 244
ASSAY_READOUT: CTG-3D luminescence at 96 h
Please state the value as a number alone, without comment.

Field: example entries. Status: answers known.
CC[C@H](NC(=O)[C@H](C)NC)C(=O)N1C[C@@H](O)C[C@H]1Cc1c(-c2[nH]c3cc(F)ccc3c2C[C@@H]2C[C@H](O)CN2C(=O)[C@H](CC)NC(=O)[C@H](C)NC)[nH]c2cc(F)ccc12 = 0.713
CC(=O)O[C@H]1C(=O)[C@@]2(C)[C@H]([C@H](OC(=O)c3ccccc3)[C@]3(O)C[C@H](OC(=O)[C@H](O)[C@@H](NC(=O)c4ccccc4)c4ccccc4)C(C)=C1C3(C)C)[C@]1(OC(C)=O)CO[C@@H]1C[C@@H]2O = 0.852
O=C(c1ccc(F)c(F)c1Nc1ccc(I)cc1F)N1CC(O)([C@@H]2CCCCN2)C1 = 1.08
NC(=O)c1cccc2cn(-c3ccc([C@@H]4CCCNC4)cc3)nc12 = 1.17
C=CCn1c(=O)c2cnc(Nc3ccc(N4CCN(C)CC4)cc3)nc2n1-c1cccc(C(C)(C)O)n1 = 0.555

The record that follows has no CTG-3D luminescence at 96 h shown yet.
Request: Value lookup for CTG-3D luminescence at 96 h; key = `CNC(=O)c1cccc(-c2ccc3c(N4CCOC[C@@H]4C)nc(N4CCOC[C@@H]4C)nc3n2)c1`
Response: 0.812

====

tested on: HCI-011.E2 (organoid from an ER-positive breast cancer xenograft); assay: CTG-3D luminescence at 96 h relative to day-0 seeding control (ratio to day 0); higher = more growth / less cytotoxicity; PDxO 3D drug screen, 96 h, CTG-3D normalised to day-0 seeding control.; conditions: 0.1 µM
ASSAY_READOUT: CTG-3D luminescence at 96 h
Format: numeric value only, no unit, no commentary.

Examples from the recorded data:
CC[C@H](NC(=O)[C@H](C)NC)C(=O)N1C[C@@H](O)C[C@H]1Cc1c(-c2[nH]c3cc(F)ccc3c2C[C@@H]2C[C@H](O)CN2C(=O)[C@H](CC)NC(=O)[C@H](C)NC)[nH]c2cc(F)ccc12 = 1.61
CC(C)(C(=O)NCC(F)(F)C(F)(F)F)C(=O)N[C@@H]1C(=O)Nc2ccccc2-c2ccccc21 = 1.97
CNC(=O)c1cccc(-c2ccc3c(N4CCOC[C@@H]4C)nc(N4CCOC[C@@H]4C)nc3n2)c1 = 1.23
C=CC(=O)N1CCC[C@@H](n2nc(-c3ccc(Oc4ccccc4)cc3)c3c(N)ncnc32)C1 = 2

Request: What value of measured CTG-3D luminescence at 96 h is listed for `C=CCn1c(=O)c2cnc(Nc3ccc(N4CCN(C)CC4)cc3)nc2n1-c1cccc(C(C)(C)O)n1` ?
Response: 1.89

====

Recorded CTG-3D luminescence at 96 h for the following compounds
system: HCI-001 (organoid from a triple-negative breast cancer xenograft); experiment: CTG-3D luminescence at 96 h relative to day-0 seeding control (ratio to day 0); higher = more growth / less cytotoxicity; PDxO 3D drug screen, 96 h, CTG-3D normalised to day-0 seeding control.; conditions: 1 µM; days in culture: 240
No unit in the answer, please; the number alone is enough.

Worked examples follow.
CC(=O)O[C@H]1C(=O)[C@@]2(C)[C@H]([C@H](OC(=O)c3ccccc3)[C@]3(O)C[C@H](OC(=O)[C@H](O)[C@@H](NC(=O)c4ccccc4)c4ccccc4)C(C)=C1C3(C)C)[C@]1(OC(C)=O)CO[C@@H]1C[C@@H]2O = 0.952
Nc1ccn([C@@H]2O[C@H](CO)[C@@H](O)C2(F)F)c(=O)n1 = 0.86
O=C(/C=C/c1cccnc1)NCCCCC1CCN(C(=O)c2ccccc2)CC1 = 0.113
CC[C@H](NC(=O)[C@H](C)NC)C(=O)N1C[C@@H](O)C[C@H]1Cc1c(-c2[nH]c3cc(F)ccc3c2C[C@@H]2C[C@H](O)CN2C(=O)[C@H](CC)NC(=O)[C@H](C)NC)[nH]c2cc(F)ccc12 = 1.35

Next up:
Request: Requested field: CTG-3D luminescence at 96 h. Item: `NC(=O)Nc1cc(-c2cccc(F)c2)sc1C(=O)N[C@H]1CCCNC1`
Response: 0.663

====

system: HCI-015 (organoid from a triple-negative breast cancer xenograft); assay: CTG-3D luminescence at 96 h relative to day-0 seeding control (ratio to day 0); higher = more growth / less cytotoxicity; PDxO 3D drug screen, 96 h, CTG-3D normalised to day-0 seeding control.; conditions: 0.00025 µM; days in culture: 191
Entries and their CTG-3D luminescence at 96 h
Give the value as a plain number.

Before answering, review these 3 worked examples.
CCc1c2c(nc3ccc(O)cc13)-c1cc3c(c(=O)n1C2)COC(=O)[C@]3(O)CC = 1.32
CC(C)n1nc(-c2ccc3oc(N)nc3c2)c2c(N)ncnc21 = 1.6
C[C@@H]1COCCN1c1cc(C2([S@](C)(=N)=O)CC2)nc(-c2cc[nH]c3nccc2-3)n1 = 1.33

Request: Reported CTG-3D luminescence at 96 h, molecule `CNC(=O)c1cccc(-c2ccc3c(N4CCOC[C@@H]4C)nc(N4CCOC[C@@H]4C)nc3n2)c1` : ____
Response: 1.24

Request: Now the molecule `O=C(O)C1(C(=O)O)CCC1.[NH2-].[NH2-].[Pt+2]`
Response: 1.24

Request: Now the same for `NC(=O)c1cccc2cn(-c3ccc([C@@H]4CCCNC4)cc3)nc12`
Response: 1.35

====

test system: HCI-023 (organoid from a triple-negative breast cancer xenograft); experiment: CTG-3D luminescence at 96 h relative to day-0 seeding control (ratio to day 0); higher = more growth / less cytotoxicity; PDxO 3D drug screen, 96 h, CTG-3D normalised to day-0 seeding control.; conditions: 12.5 pM; days in culture: 111
Attribute: CTG-3D luminescence at 96 h
Simply state the number, no unit and no words.

Known results for molecules:
O=C(c1ccc(F)c(F)c1Nc1ccc(I)cc1F)N1CC(O)([C@@H]2CCCCN2)C1 = 1.18
Cc1cc(Nc2ncnc3ccc(NC4=NC(C)(C)CO4)cc23)ccc1Oc1ccn2ncnc2c1 = 1.15
CC(C)n1nc(-c2ccc3oc(N)nc3c2)c2c(N)ncnc21 = 1.32
CS(=O)(=O)c1ccc(C(=O)Nc2ccc(Cl)c(-c3ccccn3)c2)c(Cl)c1 = 1.92
COc1cccc2c1C(=O)c1c(O)c3c(c(O)c1C2=O)C[C@@](O)(C(=O)CO)C[C@@H]3O[C@H]1C[C@H](N)[C@H](O)[C@H](C)O1 = 1.54
NC1(C(=O)N[C@@H](CCO)c2ccc(Cl)cc2)CCN(c2nc[nH]c3nccc2-3)CC1 = 1.51

Request: Can you share its CTG-3D luminescence at 96 h? I mean this molecule: `CCN(c1cc(C#CCN2CCOCC2)cc(C(=O)NCc2c(C)cc(C)[nH]c2=O)c1C)[C@H]1CC[C@H](N(C)CCOC)CC1`
Response: 1.69

Request: Same question for `C[C@@H]1COCCN1c1cc(C2([S@](C)(=N)=O)CC2)nc(-c2cc[nH]c3nccc2-3)n1` please.
Response: 1.26

Request: Another molecule: `O=C(O)C1(C(=O)O)CCC1.[NH2-].[NH2-].[Pt+2]`
Response: 1.4

Request: Do the same for `CNC(=O)c1cccc(-c2ccc3c(N4CCOC[C@@H]4C)nc(N4CCOC[C@@H]4C)nc3n2)c1` please
Response: 1.41

Request: Thanks! And `CC(C)(C(=O)NCC(F)(F)C(F)(F)F)C(=O)N[C@@H]1C(=O)Nc2ccccc2-c2ccccc21` ?
Response: 1.36

====

test system: HCI-012 (organoid from a breast cancer xenograft); test: CTG-3D luminescence at 96 h relative to day-0 seeding control (ratio to day 0); higher = more growth / less cytotoxicity; PDxO 3D drug screen (set 2), 96 h, CTG-3D normalised to day-0 seeding control.; conditions: 1 µM; days in culture: 243
ASSAY_READOUT: CTG-3D luminescence at 96 h

Some solved entries appear below for comparison.
CO[C@H]1C[C@@H]2CC[C@@H](C)[C@@](O)(O2)C(=O)C(=O)N2CCCC[C@H]2C(=O)O[C@H]([C@H](C)C[C@@H]2CC[C@@H](OCCO)[C@H](OC)C2)CC(=O)[C@H](C)/C=C(\C)[C@@H](O)[C@@H](OC)C(=O)[C@H](C)C[C@H](C)/C=C/C=C/C=C/1C = 1.38
Cc1c(CN2CCN(C(=O)[C@H](C)O)CC2)sc2c(N3CCOCC3)nc(-c3cnc(N)nc3)nc12 = 0.554
CC(=O)c1c(C)c2cnc(Nc3ccc(N4CCNCC4)cn3)nc2n(C2CCCC2)c1=O = 2.27

API: the following record is the query input.
Request: Given the compound `CC(=O)O[C@@]12CO[C@@H]1C[C@H](O)[C@@]1(C)C(=O)[C@H](O)C3=C(C)[C@@H](OC(=O)[C@H](O)[C@@H](NC(=O)OC(C)(C)C)c4ccccc4)C[C@@](O)([C@@H](OC(=O)c4ccccc4)[C@H]21)C3(C)C` , what is its reported CTG-3D luminescence at 96 h?
Response: 0.65
